Ki values, listed per item
Biological target: recombinant human LTA4 hydrolase (rhLTA4H) (Homo sapiens, UniProt P09960)
Sequence (P09960 1-611): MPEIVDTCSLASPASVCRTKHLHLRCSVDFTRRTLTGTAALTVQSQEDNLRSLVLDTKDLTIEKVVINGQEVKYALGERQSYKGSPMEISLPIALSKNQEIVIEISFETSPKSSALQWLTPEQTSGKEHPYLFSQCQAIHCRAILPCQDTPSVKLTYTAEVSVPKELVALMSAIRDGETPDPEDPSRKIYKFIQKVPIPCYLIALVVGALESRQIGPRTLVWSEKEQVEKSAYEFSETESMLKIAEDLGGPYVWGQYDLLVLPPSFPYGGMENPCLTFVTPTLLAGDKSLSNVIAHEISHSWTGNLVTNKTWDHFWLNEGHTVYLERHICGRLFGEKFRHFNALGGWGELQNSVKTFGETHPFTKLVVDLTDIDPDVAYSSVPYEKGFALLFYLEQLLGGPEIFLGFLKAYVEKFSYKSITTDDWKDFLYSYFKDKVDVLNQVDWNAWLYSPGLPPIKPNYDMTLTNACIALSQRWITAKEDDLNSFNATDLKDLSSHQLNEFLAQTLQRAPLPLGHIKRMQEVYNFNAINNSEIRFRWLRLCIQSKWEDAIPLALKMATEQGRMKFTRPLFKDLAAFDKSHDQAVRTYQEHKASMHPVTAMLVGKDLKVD
Assay: Recombinant Human LTA4 Hydrolase Assay for LTA4 Hydrolase Inhibitor Activity
Settings: average of results obtained; LTB4 quantified by enzyme-linked immunoassay
Answer format: number, then unit.

Known Ki results, listed for orientation:
>>> value("CC(=O)N1C[C@@H]2C[C@H]1CN2Cc1ccc(Oc2nc3ccc(C)cc3s2)cc1")
"72 nM"
>>> value("CS(=O)(=O)N1[C@@H]2CC[C@H]1C[C@H](NCCc1ccc(Oc3nc4c(Cl)cccc4s3)cc1)C2")
"244 nM"

The reported value for CC(=O)N1C[C@H]2C[C@@H]1CN2Cc1ccc(Oc2nc3cc(F)ccc3s2)cc1 in terms of Ki is 383 nM

---

molecular target: recombinant human LTA4 hydrolase (rhLTA4H) (Homo sapiens); test: Recombinant Human LTA4 Hydrolase Assay for LTA4 Hydrolase Inhibitor Activity; conditions: average of results obtained; LTB4 quantified by enzyme-linked immunoassay
Where a name gives a salt, the structure may show the parent alone.
Ki values, listed per item
Answer with a number only, understood to be in nM.

>>> value("O=S(=O)(c1cccnc1)N1CC2CN(Cc3ccc(Oc4nc5ccccc5s4)cc3)CC2C1 (centres unmarked)")
205
>>> value("CC(=O)N1C[C@H]2C[C@@H]1CN2CCOc1ccc(Oc2nc3ccc(C)cc3s2)cc1")
124
>>> value("CC(=O)N1[C@@H]2CC[C@H]1C[C@H](NCCOc1ccc(Oc3nc4cccc(F)c4s3)cc1)C2")
190
>>> value("NC(=O)N1[C@@H]2CC[C@H]1C[C@@H](NCc1ccc(Oc3nc4c(F)cccc4s3)cc1)C2")
9
>>> value("c1ccc2sc(Oc3ccc(CN4CCC5CNCC54)cc3)nc2c1 (centres unmarked) [Example 82, hydrochloride]")
97

The reported value for CC(=O)N1C[C@@H]2C[C@H]1CN2Cc1cccc(Oc2nc3ccccc3s2)c1 in terms of Ki is 508

The reported value for O=C(c1ccc[nH]1)N1C[C@@H]2C[C@H]1CN2Cc1ccc(Oc2nc3ccccc3s2)cc1 in terms of Ki is 36

The reported value for NCC(=O)N1CC2CCN(Cc3ccc(Oc4nc5ccccc5s4)cc3)C2C1 (centres unmarked) in terms of Ki is 26
